# Tested on: Plasmodium falciparum
# Protocol Description: Antimalarial activity against chloroquine-resistant Plasmodium falciparum K1 infected in erythroctes incubated for 72 hrs by SYBR green 1 based spectrofluorometer
# Type: functional, organism-based, Erythrocyte
# Measurement Parameters: erythrocyte
Consider the following molecules and their measured pEC50 readings.
Scale for pEC50: -log10 of concentration given in mol/L; no unit attached.

Look over these answered cases.
>>> df
                                   molecule  endpoint_label  readout_value
0  CCOC(=O)C1=C(C)NC2=C(C(=O)OC(c3ccc(OC)c(OC)c3)C2)C1c1ccccc1C (mixture of isomers)           pEC50           6.91
1  CCOC(=O)C1=C(C)NC2=C(C(=O)OC(c3ccc(OC)c(OC)c3)C2)C1c1ccc(Cl)cc1 (stereo in doubt; 5A)           pEC50           6.20
2  CCCC1=C(C(=O)OCC)C(c2ccc(Cl)cc2C)C2=C(CC(c3ccc(OC)c(OC)c3)CC2=O)N1 (stereo in doubt; 44B)           pEC50           7.95

The molecule listed as CCOC(=O)C1=C(C)NC2=C(C(=O)CC(c3cc(OC)c(OC)c(OC)c3)C2)C1c1ccccc1Cl (mixture of isomers) has a reported pEC50 of 8.31

The molecule CCOC(=O)C1=C(C)NC2=C(C(=O)OC(c3ccc(OC)c(OC)c3)C2)C1c1ccccc1C (stereo in doubt; 6A) showed pEC50 equal to 5.69

Just so you know, measured pEC50 for CCCOC(=O)C1=C(C)NC2=C(C(=O)OC(c3ccc(OC)c(OC)c3)C2)C1c1ccccc1Cl (stereo in doubt; 29B) came out at 6.48

* * *

# Tested on: Plasmodium falciparum
# Protocol Description: Antimalarial activity against chloroquine-resistant Plasmodium falciparum K1 infected in erythroctes incubated for 72 hrs by SYBR green 1 based spectrofluorometer
# Assay type: functional, organism-based, Erythrocyte
# Measurement Parameters: erythrocyte
pEC50: −log10 of the molar value.
Please use Met whenever pEC50 is not below 8, and Not met whenever it is.

Observe how each entry below is paired with its result.
>>> print(df.to_string())
                                   molecule                 target  classification
0  CCOC(=O)C1=C(C)NC2=C(C(=O)OC(c3ccc(Cl)c(OC)c3)C2)C1c1ccccc1Cl (mixture of isomers)  Plasmodium falciparum         Not met
1  CCCC1=C(C(=O)OCC)C(c2ccc(Cl)cc2C)C2=C(CC(c3ccc(OC)c(OC)c3)OC2=O)N1 (stereo in doubt; 45B)  Plasmodium falciparum             Met

Inquiry: Hello, I need to know if CCCC1=C(C(=O)OCC)C(c2ccccc2Cl)C2=C(CC(c3ccc(OC)c(OC)c3)CC2=O)N1 (mixture of isomers) has measured pEC50 not below 8. Thanks!
Reply text: Met

Inquiry: Hi, just wondering whether CCOC(=O)C1=C(C)NC2=C(C(=O)OC(c3cccc(OC)c3)C2)C1c1ccccc1Cl (stereo in doubt; 25A) shows pEC50 of 8 or higher.
Reply text: Not met

Inquiry: In plain terms: is recorded pEC50 at least 8 for COCC1=C(C(=O)OC)C(c2ccc(Cl)cc2)C2=C(CC(c3cc(OC)c(OC)c(OC)c3)OC2=O)N1 (stereo in doubt; 56B) ?
Reply text: Not met

Inquiry: Does CCOC(=O)C1=C(C)NC2=C(C(=O)OC(c3ccccc3OC)C2)C1c1ccccc1Cl (stereo in doubt; 24B) have a reported pEC50 of at least 8?
Reply text: Not met

* * *

Items are presented alongside their recorded pEC50.
# Tested on: Plasmodium falciparum
# Protocol Description: Antimalarial activity against chloroquine-sensitive Plasmodium falciparum 3D7 infected in erythroctes incubated for 72 hrs by SYBR green 1 based spectrofluorometer
# Assay type: functional, organism-based, Erythrocyte
# Measurement Parameters: Plasmodium falciparum, 3D7, Erythrocyte, 72 h
pEC50: −log10 of the molar value.

A selection of reference data follows.
In [3]: df
Out[3]:
                                   compound                 target  endpoint_label  readout_value
0  CCOC(=O)C1=C(C)NC2=C(C(=O)OC(c3ccc(OC)c(OC)c3)C2)C1c1cccc(C)c1 (stereo unspecified)  Plasmodium falciparum           pEC50         < 5.00
1  CCOC(=O)C1=C(C)NC2=C(C(=O)OC(c3ccccc3OC)C2)C1c1ccccc1Cl (stereo in doubt; 24A)  Plasmodium falciparum           pEC50         < 5.22
2  COc1ccc(C2CC3=C(C(=O)O2)C(c2ccccc2Cl)C(C(=O)OCc2ccccc2)=C(C)N3)cc1OC (stereo in doubt; 31A)  Plasmodium falciparum           pEC50         < 4.93

Lab book: pEC50 of CCOC(=O)C1=C(C)NC2=C(C(=O)OC(c3ccc(OC)c(OC)c3)C2)C1c1cccc(OC)c1 (stereo unspecified) noted as < 5.00

GET /value?item= CCOC(=O)C1=C(C)NC2=C(C(=O)OC(c3ccc(OC)c(OC)c3)C2)C1c1cccc(Cl)c1 (stereo unspecified) &field=pEC50 returns < 5.00

* * *

# pEC50 annotations
# System: Plasmodium falciparum
# Protocol Description: Antimalarial activity against chloroquine-resistant Plasmodium falciparum K1 infected in erythroctes incubated for 72 hrs by SYBR green 1 based spectrofluorometer
# Assay type: functional, organism-based, Erythrocyte
# Measurement Parameters: erythrocyte
Keep in mind that pEC50 stands for -log10 of concentration in molar terms.

The following compounds have reported results that may help.
>>> print(df.to_string())
                                   compound  endpoint_label  readout_value
0  CCOC(=O)C1=C(C)NC2=C(C(=O)OC(c3ccc(Cl)cc3)C2)C1c1ccccc1Cl (stereo in doubt; 20B)           pEC50           5.67
1  CCOC(=O)C1=C(C)NC2=C(C(=O)OC(c3ccc(OC)c(OC)c3)C2)C1c1ccccc1 (stereo in doubt; 1B)           pEC50           7.10
2  CCCC1=C(C(=O)OCC)C(c2ccc(Cl)cc2C)C2=C(CC(c3cc(OC)ccc3OC)CC2=O)N1 (mixture of isomers)           pEC50           7.35
3  CCCC1=C(C(=O)OCC)C(c2ccc(Cl)cc2C)C2=C(CC(c3ccc(OC)c(OC)c3)OC2=O)N1 (mixture of isomers)           pEC50           7.66
4  CCOC(=O)C1=C(C)NC2=C(C(=O)OC(c3ccc(OC)c(OC)c3)C2)C1c1ccc(Cl)cc1 (stereo in doubt; 5)           pEC50           6.80

# pEC50 measured on Plasmodium falciparum for item CCOC(=O)C1=C(C)NC2=C(C(=O)CC(c3ccc(OC)c(OC)c3)C2)C1c1ccc(Cl)cc1C (stereo in doubt; 37B) = 7.80

Tested system Plasmodium falciparum; pEC50 recorded for CCOC(=O)C1=C(C)NC2=C(C(=O)OC(c3ccc(OC)c(OC)c3)C2)C1c1ccc(Cl)cc1C (mixture of isomers) was 7.33

* * *

Each item that follows carries a reported inhibition in vivo at 50 mg/kg.
# System: Plasmodium berghei
# Protocol Description: Antiplasmodial activity against Plasmodium berghei KBG-173 infected in male mouse assessed as inhibition of parasitemia at 50 mg/kg, po administered as single dose on day 1 post exposure and measured on day 3 post exposure relative to control
# Format: functional
# Measurement Parameters: KBG-173, 72 h, time 3 day
Answer format: numeric, % implied, no suffix.

Query CCCC1=C(C(=O)OCC)C(c2ccc(Cl)cc2C)C2=C(CC(c3ccc(OC)c(OC)c3)CC2=O)N1 (stereo in doubt; 44B) yields inhibition in vivo at 50 mg/kg of 34

CCOC(=O)C1=C(C)NC2=C(C(=O)OC(c3ccc(OC)c(OC)c3)C2)C1c1ccccc1Cl (stereo in doubt; 3B) has a reported inhibition in vivo at 50 mg/kg of 100

Briefly, inhibition in vivo at 50 mg/kg measured for COCC1=C(C(=O)OC)C(c2ccc(Cl)cc2C)C2=C(CC(c3ccc(OC)c(OC)c3)CC2=O)N1 (stereo in doubt; 51B) : 100

Lab note: measured inhibition in vivo at 50 mg/kg of CCN(CC)Cc1cc(Nc2ccnc3cc(Cl)ccc23)ccc1O was 100

* * *

# Test system: Plasmodium falciparum
# Protocol Description: Antimalarial activity against chloroquine-resistant Plasmodium falciparum K1 infected in erythroctes incubated for 72 hrs by SYBR green 1 based spectrofluorometer
# Assay type: functional, organism-based, Erythrocyte
# Measurement Parameters: erythrocyte
Endpoint Label: EC50 (nM)
Express it in nM; write the number only.

# example entries with known answers
>>> df
                                   molecule                 target  unit_annotation  readout_value
0  CCOC(=O)C1=C(C)NC2=C(C(=O)OC(c3ccc(OC)c(OC)c3)C2)C1c1ccc(Cl)cc1 (stereo in doubt; 5B)  Plasmodium falciparum               nM           53.8
1  CCCC1=C(C(=O)OCC)C(c2ccc(Cl)cc2C)C2=C(CC(c3ccc(OC)c(OC)c3)OC2=O)N1 (stereo in doubt; 45A)  Plasmodium falciparum               nM            102
2  CCOC(=O)C1=C(C)NC2=C(C(=O)CC(c3ccc(Cl)c(OC)c3)C2)C1c1ccccc1Cl (stereo in doubt; 39A)  Plasmodium falciparum               nM            397

get_value(item= COCC1=C(C(=O)OC)C(c2ccc(Cl)cc2C)C2=C(CC(c3ccc(OC)c(OC)c3)CC2=O)N1 (stereo in doubt; 51B) , readout=EC50) returns 6.2

Data credit: ChEMBL document CHEMBL5579840
